metric: melting point (°C)

Example results:
| molecule | metric | unit.of.measurement | numeric.value |
| --- | --- | --- | --- |
| COc1ccc(S(=O)(=O)Cl)cc1F | melting point | °C | 79 |
| CC(=O)c1csc(-c2ccc(C(F)(F)F)cc2)n1 | melting point | °C | 66 |
| NC(Cc1ccc(O)c(I)c1)C(=O)O (configuration not stated) | melting point | °C | 205 |

(a) CCCCCOC(=O)COc1cc(N2C(=O)C3=C(CCCC3)C2=O)c(F)cc1Cl
(b) Cc1ccncc1C
Q: I'm curious, which of these has a smaller melting point number: a or b ? Reply briefly: the label of your chosen item.
Ans: b
(b: -11 °C, a: 89 °C)
